Numbers sourced from ChEMBL document CHEMBL1152173.

system: Trichoderma koningii; test: Antifungal activity against Trichoderma koningii assessed as radial growth at 3% after 48 hrs by poison food technique of Flack relative to control; type: functional

Compound: CCOC(=O)C1=C(C)NC(=O)NC1c1ccc(N(C)C)cc1 (stereo unspecified)
Unit descriptor: %
inhibition (INH): 64.51
//
Compound: CCOC(=O)C1=C(C)NC(=S)NC1c1ccc(N(C)C)cc1 (stereo unspecified)
Unit descriptor: %
inhibition (INH): 18.75
//
Compound: CCOC(=O)C1=C(C)NC(=O)NC1c1ccccc1O (stereo unspecified)
Unit descriptor: %
inhibition (INH): 38.81
//
Compound: CCOC(=O)C1=C(C)NC(=S)NC1c1ccccc1 (stereo unspecified)
Unit descriptor: %
inhibition (INH): 68.08
//
Compound: CCOC(=O)C1=C(C)NC(=O)NC1c1ccccc1 (stereo unspecified)
Unit descriptor: %
inhibition (INH): 62.31
//
Compound: CCOC(=O)C1=C(C)NC(=S)NC1c1ccccc1O (stereo unspecified)
Unit descriptor: %
inhibition (INH): 4.18
